- assayed.target: glucosylceramide synthase (GCS) (Mus musculus, UniProt O88693)
- Construct: IC50 values for GCS activity were measured using living cells; endogenous in cells
- Sequence (O88693 whole entry): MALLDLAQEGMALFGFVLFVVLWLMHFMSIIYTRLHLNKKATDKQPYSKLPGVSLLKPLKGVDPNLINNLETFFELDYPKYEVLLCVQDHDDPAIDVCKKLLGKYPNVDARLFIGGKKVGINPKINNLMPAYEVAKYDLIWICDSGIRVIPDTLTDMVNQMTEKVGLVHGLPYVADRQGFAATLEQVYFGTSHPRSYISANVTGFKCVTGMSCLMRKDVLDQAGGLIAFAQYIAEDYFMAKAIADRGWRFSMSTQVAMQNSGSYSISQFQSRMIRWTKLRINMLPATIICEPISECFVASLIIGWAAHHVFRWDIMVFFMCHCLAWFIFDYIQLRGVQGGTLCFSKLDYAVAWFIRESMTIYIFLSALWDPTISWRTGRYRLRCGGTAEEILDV
- procedure.details: GCS activity in living macrophage  cells (C6-NBD lipid, TLC readout)
- Format: cell-based
- measurement.context: read-out: GCS [nM] (IC50)
# IC50 per entry
Please reply with the bare figure in nM and do not write the unit itself.

Known IC50 results, listed for orientation:
chemical.smiles	assayed.target	experimental.value
OC[C@@H]1[C@@H](O)[C@H](O)[C@@H](O)CN1CC(F)(F)CCCOCc1ccc(-c2ccccc2)cc1	glucosylceramide synthase (GCS) (Mus musculus, UniProt O88693)	200
OC[C@@H]1[C@@H](O)[C@H](O)[C@@H](O)CN1CCCCCOCc1ccc(-c2cccnc2)cc1	glucosylceramide synthase (GCS) (Mus musculus, UniProt O88693)	200
OC[C@@H]1[C@@H](O)[C@H](O)[C@@H](O)CN1CCCCCOCc1ccc(-c2ccccc2)cc1C(F)(F)F	glucosylceramide synthase (GCS) (Mus musculus, UniProt O88693)	25

Please turn your attention to the following entry.
Query string: Form field - read-out: IC50; system: glucosylceramide synthase (GCS) (Mus musculus, UniProt O88693); submitted item: OC[C@@H]1[C@@H](O)[C@H](O)[C@@H](O)CN1CCCCCOCc1ccc(-c2ccccc2)cn1
Result string: 200
